- Tested on: Rossellomorea oryzaecorticis ZC255
- experiment-description: Drug sensitivity test of strains (antibiotic tolerance); further: key: R: resistance; S: sensitivity; I: betweenness
- Assay type: cell-based
measurement-label: Results of drug sensitivity test of strains

CC1COc2c(N3CCN(C)CC3)c(F)cc3c(=O)c(C(=O)O)cn1c23 (centres unmarked): R
[H]/N=C(/N)N[C@H]1[C@H](O)[C@@H](O)[C@H](O[C@@H]2O[C@@H](C)[C@](O)(C=O)[C@H]2O[C@@H]2O[C@@H](CO)[C@H](O)[C@@H](O)[C@@H]2NC)[C@@H](N/C(N)=N\[H])[C@@H]1O: R
CC1(C)S[C@@H]2[C@H](NC(=O)[C@H](N)c3ccccc3)C(=O)N2[C@H]1C(=O)O: S
CN(C)[C@@H]1C(O)=C(C(N)=O)C(=O)[C@@]2(O)C(O)=C3C(=O)c4c(O)cccc4[C@@](C)(O)[C@H]3C[C@@H]12: R
CO[C@H]1/C=C/O[C@@]2(C)Oc3c(C)c(O)c4c(O)c(c(/C=N/N5CCN(C)CC5)c(O)c4c3C2=O)NC(=O)/C(C)=C\C=C\[C@H](C)[C@H](O)[C@@H](C)[C@@H](O)[C@@H](C)[C@H](OC(C)=O)[C@@H]1C: I
